Method summary: Cytotoxicity against AGT-deficient human SF126 cells assessed as reduction in cell viability measured after 24 hrs by CCK8 assay
Type: functional, cell-based
Measurement context: SF-126, 24 h
Result type: IC50 (µM)
Response body: numeric value in µM, unit text excluded.

Examples with their reported IC50 follow.
# Compound, IC50 (µM)
rows = [
    ("O=NN(CCCl)C(=O)NCCCl [CARMUSTINE]", 85),
    ("Nc1nc(OCc2ccccc2)c2ncn(CCNC(=O)N(CCCl)N=O)c2n1", 52),
]

Next:
Query string: Given Cc1ncc(CNC(=O)N(CCCl)N=O)c(N)n1 [NIMUSTINE] , respond with its IC50.
Result string: 450

###

Method summary: Cytotoxicity against AGT-positive human SF767 cells assessed as reduction in cell viability pretreated with O6-BG for 2 hrs followed by addition of compound measured after 24 hrs by CCK8 assay
Format: functional, cell-based
Result type: pIC50
Note: pIC50 values are expressed as the negative base-10 logarithm of concentration in M.

# Item smiles, Result type, Value observed
records = [
    ("O=NN(CCCl)C(=O)NCCCl", "pIC50", 3.92),
]

The record that follows has no pIC50 shown yet.
Query string: # return recorded pIC50 for input `Cc1ncc(CNC(=O)N(CCCl)N=O)c(N)n1`
Result string: 3.40
